Assay: NCI Yeast Anticancer Drug Screen. Data for the mlh1 rad18 strain (AID 175)
Settings: S. cerevisiae mlh1 rad18 strain growth inhibition; at 50.0 µM; stronger effect = higher value
This is part of a sample that, as a whole, favours compounds with a hit. Of some 79,000 tested, about 15% had one in any assay.
growth inhibition values, listed per item
# unit: % | format: bare number

Here's what some known entries look like.
Lookup: What does the record list as growth inhibition for CC(C)NC(=O)OCc1c(COC(=O)NC(C)C)c(-c2ccc(Cl)c(Cl)c2)n2c1CCC2 ?
Found: 69.2

Lookup: Entry O=[N+]([O-])c1cccc2nccc(NCCCO)c12 please
Found: 32.9

Lookup: Entry Cc1ccc(Cl)c2[nH]c(-c3ccccc3)cc(=O)c12 please
Found: 62.8

Lookup: Entry CCN(CC)C(=S)N/N=C(/C)c1cccc(/C(C)=N\NC(=S)N(CC)CC)n1 please
Found: 70.7

Lookup: Entry Cc1nc(-c2ccccc2)c(-c2ccccc2)s1 please
Found: 86.5

Now for another entry.
Lookup: What does the record list as growth inhibition for CCCCCCCCCCC(=O)Cl ?
Found: -13.4

====

Test: NCI Yeast Anticancer Drug Screen. Data for the sgs1 mgt1 strain (AID 161);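 further: 0% = growth of cultures given vehicle only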
Settings: S. cerevisiae sgs1 mgt1 strain, at 5.0 µM (retest, dose inferred, filed as 0.5), stronger effect = higher value
Compounds without any hit were thinned out: in the full panel of roughly 79,000, 15% have a hit.
growth inhibition values, listed per item
# unit: % | format: bare number

Here's what some known entries look like.
Lookup: What does the record list as growth inhibition for COP(=O)(OC)/C(=C\C1=CN(C(c2ccccc2)(c2ccccc2)c2ccccc2)CN1)NC=O ?
Found: -9

Lookup: Entry Cn1c(=O)c2ccccc2c2ccccc21 please
Found: -64

Lookup: Entry COc1cc(CC2CC(c3ccc4c(c3)OCO4)OC2=O)cc(OC)c1OC (configuration not stated) please
Found: 2

Lookup: Entry CC(C)=CC(=O)O[C@@H]1CC(C)(C)CC2C3=CCC4[C@]56CC[C@](O)(OC5)C(C)(C)C6CC[C@@]4(C)C3(C)CC[C@]21C(=O)O (some centres not stated) please
Found: 11

Lookup: Entry CSC1=NNC(SC)=NN1 please
Found: -1

New cases:
Lookup: What does the record list as growth inhibition for COc1cc(C2c3cc4c(cc3OC(NNc3ccccc3)C2C)OCO4)cc(OC)c1OC (configuration not stated) ?
Found: -4

Lookup: Entry CCCc1cc(C(=O)OCC)cc(CCC)c1O please
Found: 1

Lookup: Entry C/C(=N\NC(=S)N1CCCCC1)c1cccc(C)n1 please
Found: 81

====

Assay: NCI Yeast Anticancer Drug Screen. Data for the rad52 strain (AID 147);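 further: 0% = growth of vehicle-treated control cultures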
Settings: S. cerevisiae rad52 mutant growth inhibition; at 11.0 µM; stronger effect = higher value
Compounds without any hit were thinned out: in the full panel of roughly 79,000, 15% have a hit.
growth inhibition values, listed per item
# unit: % | format: bare number

Lookup: What does the record list as growth inhibition for CC1OCC2OC(C)OC(C3C4=C(CC(C)(C)CC4=O)OC4=C3C(=O)CC(C)(C)C4)C2O1 (stereo not given) ?
Found: 17

New cases:
Lookup: What does the record list as growth inhibition for Cc1cc(I)ccc1N ?
Found: 24

Lookup: Entry COc1ccc(Br)c(C(=O)Sc2nnnn2-c2cccc(Cl)c2)c1 please
Found: 24

Lookup: Entry NC(=NCc1ccccc1)N/N=C\c1ccnc2ccccc12 please
Found: 0

Lookup: Entry CC(=O)Nc1ccc(SC(C)=O)cc1 please
Found: -2

====

Assay: NCI Yeast Anticancer Drug Screen. Data for the rad52 strain (AID 147);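 further: 0% = growth of vehicle-treated control cultures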
Settings: S. cerevisiae rad52 mutant growth inhibition; at 3.7 µM
About 79,000 compounds went through this panel and 15% of them were active in at least one assay; those are over-represented in the sample as a whole. Activity calls are given as the source filed them. Rule as the data show it: active = growth inhibition above about 70%; inactive = the rest.
Write down the outcome that applies. Available outcomes: active, inactive

Examples from the recorded data:
Lookup: What classification did O=C(O)c1ccccc1NC(=S)c1ccccc1 end up with in this test?
Found: inactive

Lookup: Entry CC(=O)[O][Bi]([c]1ccccc1)[c]1ccccc1 please
Found: inactive

Lookup: Entry O=[N+]([O-])c1ccc([N+]2=NC(c3ccccc3)=NN(c3ccccc3)C2)cc1 please
Found: inactive

Lookup: Entry Cc1c(C(=O)C(=O)c2ccccc2)c(C)c(C(=O)C(=O)c2ccccc2)c(C)c1C(=O)C(=O)c1ccccc1 please
Found: inactive

Lookup: Entry COC(=O)c1ccc(CCC2=CC(=O)C(Br)=CC2=O)cc1 please
Found: inactive

Lookup: Entry CCS(=O)(=O)c1ccc(/C=C/C=N/NC(=S)NCC(C)C)cc1 please
Found: inactive

Lookup: Entry FC(F)(F)c1cc(NC(=S)N2c3ccccc3-n3cccc3C2c2cccnc2)cc(C(F)(F)F)c1 (stereo not given) please
Found: inactive

Lookup: Entry CCOC(=O)C1=C(C(=O)c2ccccc2)C(c2ccccc2[N+](=O)[O-])C(C(=O)c2ccccc2)=C(C(=O)OCC)N1 please
Found: inactive

New cases:
Lookup: What classification did C/C(=N\NC(=S)N1CCCCC1)c1cccc(C)n1 end up with in this test?
Found: active

Lookup: Entry O=S(=O)(CCCl)c1ccccc1Cl please
Found: inactive

Lookup: Entry COc1cc(CC2CC(c3ccc4c(c3)OCO4)OC2=O)cc(OC)c1OC (stereo not given) please
Found: inactive

Lookup: Entry COC(=O)C1=C(C(=O)OC)C2(C)C=CC1O2 (stereo not given) please
Found: inactive

Lookup: Entry CCCCCCCCCC/C=C\C(=O)O please
Found: inactive

====

Test: NCI Yeast Anticancer Drug Screen. Data for the mec2-1 strain (AID 157)
Settings: S. cerevisiae mec2-1 strain, at 33.0 µM
Compounds without any hit were thinned out: in the full panel of roughly 79,000, 15% have a hit. Activity calls are given as the source filed them. Cut-off read from the data, not from the text of the source: active = growth inhibition above about 70%; inactive = the rest.
Write down the outcome that applies. Available outcomes: active, inactive

Examples from the recorded data:
Lookup: What classification did C/C(=N\NC(=S)N1CCCCC1)c1cccc(C)n1 end up with in this test?
Found: active

Lookup: Entry COc1ccc(Br)c(C(=O)Sc2nnnn2-c2cccc(Cl)c2)c1 please
Found: inactive

Lookup: Entry NC(=NCc1ccccc1)N/N=C\c1ccnc2ccccc12 please
Found: inactive

New cases:
Lookup: What classification did CN(C)c1ccc(C(C#N)=C(C#N)C#N)cc1 end up with in this test?
Found: inactive

Lookup: Entry NNc1c(F)c(F)cc(F)c1F please
Found: inactive

Lookup: Entry COc1ccccc1N=NC(C(=O)c1ccccc1)C(=O)c1ccccc1 please
Found: active

Lookup: Entry CCN(CC)C(=S)N/N=C(/C)c1cccc(/C(C)=N\NC(=S)N(CC)CC)n1 please
Found: inactive

Lookup: Entry CCN(CC)CC(O)c1ccc2ccc3ccccc3c2c1 (configuration not stated) please
Found: inactive

====

Assay: NCI Yeast Anticancer Drug Screen. Data for the rad18 strain (AID 177)
Details: S. cerevisiae rad18 mutant growth inhibition; at 3.7 µM; stronger effect = higher value
This is part of a sample that, as a whole, favours compounds with a hit. Of some 79,000 tested, about 15% had one in any assay.
recorded-metric: growth inhibition (%)
# unit: % | format: bare number

Lookup: What does the record list as growth inhibition for Cn1c(=O)c(-c2ccccc2)c(N=[N+]=[N-])c2ccccc21 ?
Found: -5

Lookup: Entry C=CC(C)(O)CCC1C(=C)C(O)CC2C(C)(C)CCCC12C (configuration not stated) please
Found: -19

Lookup: Entry Cc1cc2c(cc1C(=O)CCC(=O)O)CC1(C2)Cc2cc(C)c(C(=O)CCC(=O)O)cc2C1 please
Found: 1

Lookup: Entry CSC(=S)Nc1cccc(C)n1 please
Found: -15

Lookup: Entry NNC(=O)CCc1ccc2ccc3ccccc3c2c1 please
Found: 15

New cases:
Lookup: What does the record list as growth inhibition for CC(=O)Nc1ccc(SC(C)=O)cc1 ?
Found: -10

Lookup: Entry CC[C@@]1(O)C(=O)OCc2c1cc1n(c2=O)Cc2cc3c(N)cccc3nc2-1 please
Found: -11

Lookup: Entry CCCCCCCCNC(=O)C1=C(C)NC(C)=C(C(=O)NCCCCCCCC)C1 please
Found: -2

Lookup: Entry CCN(CC)CCNc1ccc([N+](=O)[O-])c2nc3ccc(OC)cc3c(N)c12 please
Found: 4

Lookup: Entry Fc1ccc(NC(=S)SCc2ccc(Cl)c(Cl)c2)cc1F please
Found: -6

Lookup: Entry O=C1Nc2ccccc2/C1=C/COc1ccccc1 please
Found: 4

Lookup: Entry O=C(COC(=O)c1cc(O)c(O)c(O)c1)c1ccc(-c2ccccc2)cc1 please
Found: 2

====

Assay: NCI Yeast Anticancer Drug Screen. Data for the sgs1 mgt1 strain (AID 161);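 further: 0% = growth of cultures given vehicle only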
Details: S. cerevisiae sgs1 mgt1 strain, at 50.0 µM (retest, dose inferred, filed as 5.0)
This is part of a sample that, as a whole, favours compounds with a hit. Of some 79,000 tested, about 15% had one in any assay. Calls of active or inactive are those of the source. Rule as the data show it: active = growth inhibition above about 70%; inactive = the rest.
Write down the outcome that applies. Available outcomes: YES for active, NO for inactive

Examples from the recorded data:
Lookup: What classification did CCC/C(Cl)=N\OC(=O)Nc1cccc(C(F)(F)F)c1 end up with in this test?
Found: YES

Lookup: Entry O=CC=C(c1ccccc1)c1ccccc1 please
Found: YES

Lookup: Entry CC(=O)[O][Bi]([c]1ccccc1)[c]1ccccc1 please
Found: YES

New cases:
Lookup: What classification did O=C1c2cc([N+](=O)[O-])ccc2-c2cccc(F)c21 end up with in this test?
Found: NO

Lookup: Entry Cc1ccc(C2C(Cl)C(=O)N2n2cnc3ccccc3c2=O)cc1 (stereo not drawn) please
Found: NO

Lookup: Entry O=C1CSc2cc([N+](=O)[O-])ccc2N1 please
Found: NO

Lookup: Entry Cc1cc2c(cc1C(=O)CCC(=O)O)CC1(C2)Cc2cc(C)c(C(=O)CCC(=O)O)cc2C1 please
Found: NO

Lookup: Entry CCCCCCCCCCCCCCC(C(=O)[O-])[n+]1ccccc1 (stereo not drawn) please
Found: NO

Lookup: Entry O=[N+]([O-])c1ccc2nc3ccccc3cc2c1 please
Found: YES

Lookup: Entry Cc1ccc(S/N=C\c2ccccc2O)cc1 please
Found: NO

Lookup: Entry CC(C)OC(=O)Oc1ccccc1OC(=O)OC(C)C please
Found: NO
